# Tested on: Candida albicans
# Protocol Details: Antifungal activity against Candida albicans ATCC 10231 after 48 hrs
# Type: functional
# Test Parameters: ATCC 10231, 48 h
So I've got a bunch of molecules here, and I need their MIC values.
Give bare numbers, in µg/mL.

Examples with their reported MIC follow.
CCOC(=O)c1c(-c2ccccc2)[n+]([O-])c2ccc(CN3CCN(C/C=C/c4ccccc4)CC3)cc2[n+]1[O-] ... 250
COc1nn(CCOCCN2CCN(C/C=C/c3ccccc3)CC2)c2ccc([N+](=O)[O-])cc12 ... 125

So for C[C@@H]1[C@H](O)[C@@H](C)/C=C/C=C/C=C/C=C/C=C/C=C/C=C/[C@H](O[C@@H]2O[C@H](C)[C@@H](O)[C@H](N)[C@@H]2O)C[C@@H]2O[C@](O)(C[C@@H](O)C[C@@H](O)[C@H](O)CC[C@@H](O)C[C@@H](O)CC(=O)O[C@H]1C)C[C@H](O)[C@H]2C(=O)O , the logged MIC turned out to be 0.78

# credit: ChEMBL document CHEMBL1165856
